SYSTEM UNDER TEST: T1, G9a and GLP (Homo sapiens, UniProt Q96KQ7+Q9H9B1)
T1 sequence (Q96KQ7 2-1210 limits assumed): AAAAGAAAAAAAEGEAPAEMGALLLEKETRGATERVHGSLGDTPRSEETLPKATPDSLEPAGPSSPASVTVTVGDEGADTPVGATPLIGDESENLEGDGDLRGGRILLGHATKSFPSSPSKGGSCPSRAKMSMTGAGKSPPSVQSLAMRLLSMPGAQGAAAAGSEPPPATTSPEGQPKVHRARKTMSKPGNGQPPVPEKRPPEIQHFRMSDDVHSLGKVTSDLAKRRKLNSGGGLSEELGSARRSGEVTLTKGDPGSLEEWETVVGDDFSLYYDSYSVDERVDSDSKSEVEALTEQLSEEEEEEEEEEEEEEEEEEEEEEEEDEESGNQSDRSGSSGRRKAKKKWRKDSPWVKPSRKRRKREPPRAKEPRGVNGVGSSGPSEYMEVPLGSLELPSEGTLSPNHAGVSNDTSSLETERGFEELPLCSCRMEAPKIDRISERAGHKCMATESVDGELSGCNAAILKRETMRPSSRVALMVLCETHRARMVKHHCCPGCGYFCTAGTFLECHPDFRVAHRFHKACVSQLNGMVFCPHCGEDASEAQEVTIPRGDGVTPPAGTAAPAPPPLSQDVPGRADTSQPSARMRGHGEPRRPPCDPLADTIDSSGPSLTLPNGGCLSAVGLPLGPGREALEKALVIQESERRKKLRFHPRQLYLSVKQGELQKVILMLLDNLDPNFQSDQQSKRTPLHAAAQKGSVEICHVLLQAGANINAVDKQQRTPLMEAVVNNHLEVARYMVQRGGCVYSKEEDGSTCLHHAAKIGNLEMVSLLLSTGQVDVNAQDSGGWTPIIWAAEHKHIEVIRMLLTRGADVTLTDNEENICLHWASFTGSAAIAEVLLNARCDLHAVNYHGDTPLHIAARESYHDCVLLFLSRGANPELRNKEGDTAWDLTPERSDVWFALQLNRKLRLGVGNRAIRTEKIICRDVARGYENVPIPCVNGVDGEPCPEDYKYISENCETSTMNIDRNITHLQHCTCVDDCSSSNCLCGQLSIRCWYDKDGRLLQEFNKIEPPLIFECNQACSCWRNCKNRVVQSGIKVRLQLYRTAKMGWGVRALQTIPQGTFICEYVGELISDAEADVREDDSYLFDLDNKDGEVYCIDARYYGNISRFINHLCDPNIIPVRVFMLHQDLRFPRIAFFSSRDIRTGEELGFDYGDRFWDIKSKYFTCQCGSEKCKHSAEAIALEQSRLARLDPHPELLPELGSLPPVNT
T1 sequence (Q9H9B1 2-1298 limits assumed): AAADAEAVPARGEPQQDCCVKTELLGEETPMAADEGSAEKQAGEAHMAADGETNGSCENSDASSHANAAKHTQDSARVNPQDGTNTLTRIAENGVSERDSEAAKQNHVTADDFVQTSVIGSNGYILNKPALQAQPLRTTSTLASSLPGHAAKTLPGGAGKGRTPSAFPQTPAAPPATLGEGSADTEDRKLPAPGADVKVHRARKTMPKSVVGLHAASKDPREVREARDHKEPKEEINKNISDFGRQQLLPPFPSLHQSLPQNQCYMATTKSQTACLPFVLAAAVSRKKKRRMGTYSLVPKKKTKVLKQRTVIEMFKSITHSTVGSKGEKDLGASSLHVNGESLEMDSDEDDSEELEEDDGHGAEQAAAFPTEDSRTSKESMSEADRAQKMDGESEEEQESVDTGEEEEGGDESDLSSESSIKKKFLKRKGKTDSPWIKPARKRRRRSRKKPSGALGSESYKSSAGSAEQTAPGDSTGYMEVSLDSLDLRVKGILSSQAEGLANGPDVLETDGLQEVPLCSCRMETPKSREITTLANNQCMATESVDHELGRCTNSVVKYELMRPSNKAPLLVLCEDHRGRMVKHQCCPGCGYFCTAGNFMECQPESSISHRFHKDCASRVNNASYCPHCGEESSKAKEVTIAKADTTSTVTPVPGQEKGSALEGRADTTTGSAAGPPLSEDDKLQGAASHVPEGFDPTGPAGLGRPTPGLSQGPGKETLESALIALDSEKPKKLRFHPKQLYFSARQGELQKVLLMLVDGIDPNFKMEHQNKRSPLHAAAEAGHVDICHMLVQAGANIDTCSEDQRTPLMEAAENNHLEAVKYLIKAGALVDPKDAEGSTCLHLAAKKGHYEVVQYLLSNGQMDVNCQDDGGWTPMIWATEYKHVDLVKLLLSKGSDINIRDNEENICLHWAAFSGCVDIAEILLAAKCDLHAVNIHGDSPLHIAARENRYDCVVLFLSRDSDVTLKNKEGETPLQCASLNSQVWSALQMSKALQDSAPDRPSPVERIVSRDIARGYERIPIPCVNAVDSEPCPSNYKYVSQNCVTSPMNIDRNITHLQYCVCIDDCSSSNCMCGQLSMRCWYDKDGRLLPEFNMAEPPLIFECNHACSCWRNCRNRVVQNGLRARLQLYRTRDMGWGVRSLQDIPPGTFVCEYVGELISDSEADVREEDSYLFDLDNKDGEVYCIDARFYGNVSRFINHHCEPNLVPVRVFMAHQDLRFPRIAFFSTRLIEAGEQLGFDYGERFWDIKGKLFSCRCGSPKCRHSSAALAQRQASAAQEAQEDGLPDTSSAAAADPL
EXPERIMENTAL PROTOCOL: Triple SILAC pull-down after UNC0638 treatment of 293T cells, DMSO/UNC0638 ratio of protein captured by 3×MBT;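 also: mass spectrometry (Q-Exactive) SILAC quantitation, DMSO/UNC0638 ratio computed after subtracting 3×MBTD355N mutant pull-down background, only proteins with at least twofold 3×MBT over mutant signal considered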
Type: cell-based
Design: cells were treated for 24 hours with UNC0638 at 2.5 μM or DMSO vehicle control; endogenous in cells; host or cells: HEK 293T
CONDITION NOTES: average of UNC Light and UNC Heavy experiments
Listing of entries alongside the reported Relative to UNC0638 Average.

MOLECULE	Relative to UNC0638 Average / log base 2
PDCD2L (protein, UniProt Q9BRP1 2-358, looked up) Programmed cell death protein …: AAVLKPVLLGLRDAPVHGSPTGPGAWTASKLGGIPDALPTVAAPRPVCQRCGQPLALVVQVYCPLEGSPFHRLLHVFACACPGCSTGGARSWKVFRSQCLQVPEREAQDAQKQGNSLAAEDWCEGADDWGSDTEEGPSPQFTLDFGNDASSAKDVDWTARLQDLRLQDAVLGAAHPVPPGLPLFLPYYICVADEDDYRDFVNLDHAHSLLRDYQQREGIAMDQLLSQSLPNDGDEKYEKTIIKSGDQTFYKFMKRIAACQEQILRYSWSGEPLFLTCPTSEVTELPACSQCGGQRIFEFQLMPALVSMLKSANLGLSVEFGTILVYTCEKSCWPPNHQTPMEEFCIIQEDPDELLFK	0.25
PRDX6 (protein, UniProt P30041 2-224, looked up) Peroxiredoxin-6: PGGLLLGDVAPNFEANTTVGRIRFHDFLGDSWGILFSHPRDFTPVCTTELGRAAKLAPEFAKRNVKLIALSIDSVEDHLAWSKDINAYNCEEPTEKLPFPIIDDRNRELAILLGMLDPAEKDEKGMPVTARVVFVFGPDKKLKLSILYPATTGRNFDEILRVVISLQLTAEKRVATPVDWKDGDSVMVLPTIPEEEAKKLFPKGVFTKELPSGKKYLRYTPQP	0.25

The measurements presented in this section are drawn from patent US20140274782A1.
